Assay target: human SSTR4 (Homo sapiens, UniProt P31391)
Sequence (P31391 whole entry): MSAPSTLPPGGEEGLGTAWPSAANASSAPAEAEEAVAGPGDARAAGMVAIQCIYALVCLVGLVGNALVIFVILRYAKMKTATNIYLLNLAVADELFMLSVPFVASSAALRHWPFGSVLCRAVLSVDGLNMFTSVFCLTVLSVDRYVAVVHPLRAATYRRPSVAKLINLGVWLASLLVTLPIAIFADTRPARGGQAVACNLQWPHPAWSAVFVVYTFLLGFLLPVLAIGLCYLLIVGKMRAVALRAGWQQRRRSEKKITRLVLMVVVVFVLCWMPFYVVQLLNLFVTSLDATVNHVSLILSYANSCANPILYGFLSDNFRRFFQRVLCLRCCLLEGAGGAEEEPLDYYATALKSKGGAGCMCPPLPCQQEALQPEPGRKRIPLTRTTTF
Run description: Evaluation of agonist activities using human SSTR4-stably expressing cells (aequorin luminescence)
Recorded conditions: luminescence signal; 1 μmol/L somatostatin taken as 100%
Property name: EC50 (nM)

I: CC(C)N1CCC[C@H](C(=O)NC(C)(C)c2cccc3ccccc23)C1 [Example 115]
II: Cc1cc(C)cc(C(C)(C)NC(=O)[C@H]2CCCN(C)C2)c1 [Example 25]
III: CN1CC(C(=O)NC(C)(C)c2cccc3ccccc23)CC(F)(F)C1 (stereo not shown) [Example 94]
IV: Cc1cccc(C(C)(C)NC(=O)[C@H]2CCCN(C)C2)c1C [Example 23]
Ask: // ranking: key=EC50, reverse=True Please respond by ranking the labels in the order requested.
Result: III, II, IV, I

1: COc1cc(Cl)ccc1C(C)(C)NC(=O)[C@H]1CCCN(C)C1 [Example 30]
2: CN1CCC[C@H](C(=O)NC(C)(C)c2ccc(F)cc2Cl)C1 [Example 72]
Ask: // task: argmin of EC50 over [ 1 , 2 ] Kindly state the label of the option you pick.
Result: 1
(1: 1.5 nM, 2: 2.8 nM)

A: CN1CCCC(C(=O)NC(C)(C)c2cccc(Cl)c2Cl)C1 (stereo not shown) [Example 16]
B: CN1CCCC(C(=O)NC(c2cccc3ccccc23)C(F)(F)F)C1 (stereo not shown) [Example 3]
Ask: // task: argmin of EC50 over [ A , B ] Kindly state the label of the option you pick.
Result: A
(A: 2.3 nM, B: 12.6 nM)

I: Cc1c(Cl)cccc1C(C)(C)NC(=O)[C@@H]1CC[C@H](C)N(C)C1 (relative stereo) [Example 87]
II: CCc1cc(Cl)ccc1C(C)(C)NC(=O)[C@H]1CCCN(C)C1 [Example 31]
III: CN1CCC[C@H](C(=O)NC(C)(C)c2ccccc2OC(F)F)C1 [Example 66]
Ask: Put these in order: smallest EC50 first, largest last. Please respond by ranking the labels in the order requested.
Result: II, I, III

1: Cc1cc(Cl)ccc1C(C)(C)NC(=O)C1CCCN(C)C1 (stereo not shown) [Example 12]
2: CCC1CCC(C(=O)NC(C)(C)c2cccc(Cl)c2Cl)CN1C (stereo not shown) [Example 102]
3: Cc1c(Cl)cccc1C(C)(C)NC(=O)[C@H]1CCCN(C)C1 [Example 27]
Ask: Put these in order: smallest EC50 first, largest last. Please respond by ranking the labels in the order requested.
Result: 3, 1, 2
(3: 2.1 nM, 1: 9.7 nM, 2: 61.8 nM)
